Target under test: GPR139 (Homo sapiens, UniProt Q6DWJ6)
Sequence (Q6DWJ6 1-353): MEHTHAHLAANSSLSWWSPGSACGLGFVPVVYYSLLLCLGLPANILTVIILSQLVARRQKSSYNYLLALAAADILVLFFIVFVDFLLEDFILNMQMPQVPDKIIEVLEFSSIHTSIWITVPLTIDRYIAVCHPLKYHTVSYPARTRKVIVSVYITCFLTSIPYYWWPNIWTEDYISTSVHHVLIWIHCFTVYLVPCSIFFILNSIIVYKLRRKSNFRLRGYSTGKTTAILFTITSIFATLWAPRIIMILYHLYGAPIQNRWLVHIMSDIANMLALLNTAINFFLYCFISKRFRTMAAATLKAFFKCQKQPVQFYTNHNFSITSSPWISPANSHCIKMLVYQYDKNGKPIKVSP
Assay name: GPR139 Agonist titration / agonist counterscreen assay (calcium detection, HEK-GPR139 cells)
Format: cell-based
Set-up: expressed in transfected cells; host or cells: HEK Aequorin cells, Maxcyte transient transfection
Experimental parameters: GPR139 Agonist Activity; values printed in E-notation without unit; read-out: EC50
Catalogue of pEC50 readings, one per entry.
// scale note: pEC50 = -log10(conc_M); give the bare number

[
  {
    "Compound": "CCOc1nn(CC)cc1-c1nnc(SCc2ccc(C(=O)OC)cc2)n1C [SR-01000919746]",
    "pEC50": 7.55
  },
  {
    "Compound": "COP(=O)(CN(CCc1ccc(Cl)cc1)C(=O)Nc1ccc(Cl)c(Cl)c1)OC [SR-01000584158]",
    "pEC50": 7.44
  },
  {
    "Compound": "Nc1ccc(C(=O)OCC(=O)NC2CCCc3ccccc32)cc1[N+](=O)[O-] (centres unmarked) [SR-01000034627]",
    "pEC50": 6.61
  },
  {
    "Compound": "Cc1ccc2c(c1)-c1c(cnn1CC(=O)Nc1ccccn1)CO2 [SR-01000152429]",
    "pEC50": 6.89
  },
  {
    "Compound": "O=C(CC1Nc2ccccc2NC1=O)NCC1COc2ccccc2O1 (centres unmarked) [SR-01000146516]",
    "pEC50": 6.71
  },
  {
    "Compound": "CC1CCC(NC(=O)CCC(=O)N2CCSc3ccccc32)CC1 (centres unmarked) [SR-01000159110]",
    "pEC50": 7.79
  },
  {
    "Compound": "Cc1ccc(CN2CCN(CC(=O)N3CC(C)CC(C)C3)C2=O)cc1 (centres unmarked) [SR-01000150389]",
    "pEC50": 6.72
  },
  {
    "Compound": "COc1ccc(CCC(=O)Nc2ccc(OC)c(N3CCCC3=O)c2)cc1 [SR-01000916271]",
    "pEC50": 7.32
  }
]

Query: Need pEC50 of Cc1ccc(S(=O)(=O)NC(=O)NC(C)Cc2ccccc2)cc1 (centres unmarked) [SR-01000362293] , thanks.
Result: 7.47

Query: Need pEC50 of Cc1cccnc1CNC(=O)CCC1(Cc2cccc3ccccc23)CCC(=O)N1 (centres unmarked) [SR-01000207758] , thanks.
Result: 6.75

Query: Need pEC50 of Cc1cc(Cl)ccc1OCC(=O)NNC(=O)C1CC1c1ccccc1 (centres unmarked) [SR-01000317486] , thanks.
Result: 7.91

Query: Need pEC50 of CSc1cccc(NC(=O)C2C3C=CC4(O3)C2C(=O)N(C(C)c2ccccc2)C4C(=O)NC2CCCC(C)C2C)c1 (centres unmarked) [SR-01000545824] , thanks.
Result: 6.84

Query: Need pEC50 of O=C(C1CC(Cc2cccc3ccccc23)=NO1)N1CCC(C(O)Cc2ccccc2)CC1 (centres unmarked) [SR-01000185712] , thanks.
Result: 6.91

Query: Need pEC50 of O=C(CC(c1ccccc1)c1ccccc1)Oc1coc(CSc2ncccn2)cc1=O [SR-01000020502] , thanks.
Result: 7.41

Query: Need pEC50 of Cc1ccccc1C(=O)NNC(=O)C(C)Oc1ccc(Cl)cc1Cl (centres unmarked) [SR-01000410694] , thanks.
Result: 7.00

Query: Need pEC50 of CC(Oc1ccc(Cl)cc1Cl)C(=O)NNC(=O)c1ccc(F)cc1 (centres unmarked) [SR-01000520452] , thanks.
Result: 6.63

Query: Need pEC50 of Cc1cc(C)c2c(CC(=O)NNC(=O)COc3ccccc3)coc2c1 [SR-01000301649] , thanks.
Result: 6.84

Query: Need pEC50 of Cc1ccc(CCNC(=O)Cn2nc(-c3ccccc3)ccc2=O)cc1 [SR-01000145157] , thanks.
Result: 6.85

Query: Need pEC50 of O=C(CN1C(=O)NC2(CCc3ccccc32)C1=O)Nc1cccc(Cl)c1 (centres unmarked) [SR-01000069699] , thanks.
Result: 6.97

Query: Need pEC50 of O=C(CN1C(=O)NC2(CCc3ccccc3C2)C1=O)N1CCc2ccccc2C1 (centres unmarked) [SR-01000062726] , thanks.
Result: 6.69

Query: Need pEC50 of CC(Oc1ccc(Cl)cc1Cl)C(=O)NNC(=O)c1ccncc1 (centres unmarked) [SR-01000319951] , thanks.
Result: 6.84

Query: Need pEC50 of CC1CC(C)CN(C(=O)C2C3C=CC4(CN(Cc5ccccc5Cl)C(=O)C24)O3)C1 (centres unmarked) [SR-01000583192] , thanks.
Result: 7.32

Query: Need pEC50 of COc1ccc(C2=NN(CC(=O)NCCCN(C)c3ccccc3)C(=O)CC2)cc1 [SR-01000145949] , thanks.
Result: 7.67
